- Test system: MS2 coat protein
- assay-remarks: apparent KD of MS2 coat protein; designed switch direction (-1 OFF switch, 1 ON switch): -1; higher = weaker reporter binding
- conditions: Eterna round: R95; input ligand: microRNA oligo, concentration not stated
quantity-name: apparent KD of MS2 coat protein (nM)
Respond numerically; units are nM and should not be typed.

Check out these entries, answers already filled in.
# sequence-content, system-under-test, apparent KD of MS2 coat protein, nM
measured = [
    ("GAUAGAGAGCAGGAUAUCUUGGAUAAGUAUAGUAGAGAAGGGCUCACAUGAGGAUCACCCAUGUGGUCCUAGAU [JL Dibiri mod 11] (puzzle: Exclusion 6)", "MS2 coat protein", 14.9),
    ("GAUGAGGUAGGAUAUACGAGAAGAUAGGGUAGAUAGAGAACACAUGAGGAUCACCCAUGUAGAAGGACCAGUAG [Mat - Exclusion 2 - Mod of my Tesla design - D73] (puzzle: Exclusion 2)", "MS2 coat protein", 25.9),
    ("CUUUUGUGAGGAUAUCAGUAGUAAAAUAAUAAAUAUACUACUGAGAAGGCACAUGAGGAUCACCCAUGUUCCUC [Mat - Exclusion 4 - Mod of Salish - D74] (puzzle: Exclusion 4)", "MS2 coat protein", 35),
    ("GCUUGGCGAGGAUAUACAUGAGGAUCACCCAUGUGAGAGAAAGAAGUGAGGAAGAAAAGUAGAAGGCGCUGAGG [Mat - Exclusion 3 - Mod of Salish D60] (puzzle: Exclusion 3)", "MS2 coat protein", 50.5),
    ("GAUUACACAAGCUUUAGGGACAUGAGGAUCACCCAUGUUCGUCUUAUUGAUCUAGGUACGCUGACGUACCUAGAUCU [JL-sv1-2.31 Brourd mod] (puzzle: Sensor v3, turn-off variant 1)", "MS2 coat protein", 84.9),
]

Would you kindly look at the next entry?
apparent KD of MS2 coat protein recorded for this sequence, GGUAGUAUGAGUAGUCCUCAUUGAAGAGAUUGGUAAGAUACAUGAGGAUCACCCAUGUUUGAACAAGCUUUUGCUCA [JR_Sv3TOV2_Sub006] (puzzle: Sensor v3, turn-off variant 2) , is 53

* * *

- System: K4 kissing-loop RNA reporter;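 further: bound reporter read as fluorescence of individual clusters on recovered sequencing chips by microscopy, with normalized cluster intensities fitted with a binding model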
- assay-remarks: apparent KD of K4 kissing-loop reporter; higher = weaker reporter binding
- conditions: Eterna round: R107; input ligand: arginine 13.2 mM
quantity-name: apparent KD of K4 kissing-loop reporter
Give the value; after it, write the unit.

# sequence-content, system-under-test, apparent KD of K4 kissing-loop reporter
data = [
    ("AAAAUAAACCAGUGAUGUUGGUGUCCAGAUACCAGCGACGAAAGUCGCCCUUGGCAGCUGUGGACGUACAAAAUAAGUACGUCCU", "K4 kissing-loop RNA reporter", "229 nM"),
    ("GCCGUACGCAUGGAUACCAGCAAUCAAACGUCAUGCGAAGUGAUGUUUCGCUUACGGUAGUGCCCUUGGCAGCCAUGCGUACGGC", "K4 kissing-loop RNA reporter", "124 nM"),
]

# apparent KD of K4 kissing-loop reporter of GCGAACAUUCGCAGUGAUGUUGCGACGGAAGGAGCGCGUGAAAACGCAGGUAGGUCGCCGACAACAUUAAUUUUAAUGUGUUCGC [Arginine A K4 28] = 308 nM

The value of apparent KD of K4 kissing-loop reporter measured for the sequence GCCGUAGAUUGAAGGAGCGGCUUCAUCAAAUCUCUUGCCCGCACCAGUGAUGUUGGUGUUAGCCAGGUAGGUCGCAAUCUACGGC turned out to be 376 nM

GGUUCCUCAGUGAUGUUGAGGUGACCUCGGCAGGAUAUAGGCAUUACUAGAAGGGCCAAAUGAACCCUGUCCAGCGGCACAGGGA [Arleorbile] yielded apparent KD of K4 kissing-loop reporter of 213 nM
